EXPERIMENTAL_SYSTEM: FGFR1 (UniProt P11362)
Sequence (P11362 whole entry, looked up): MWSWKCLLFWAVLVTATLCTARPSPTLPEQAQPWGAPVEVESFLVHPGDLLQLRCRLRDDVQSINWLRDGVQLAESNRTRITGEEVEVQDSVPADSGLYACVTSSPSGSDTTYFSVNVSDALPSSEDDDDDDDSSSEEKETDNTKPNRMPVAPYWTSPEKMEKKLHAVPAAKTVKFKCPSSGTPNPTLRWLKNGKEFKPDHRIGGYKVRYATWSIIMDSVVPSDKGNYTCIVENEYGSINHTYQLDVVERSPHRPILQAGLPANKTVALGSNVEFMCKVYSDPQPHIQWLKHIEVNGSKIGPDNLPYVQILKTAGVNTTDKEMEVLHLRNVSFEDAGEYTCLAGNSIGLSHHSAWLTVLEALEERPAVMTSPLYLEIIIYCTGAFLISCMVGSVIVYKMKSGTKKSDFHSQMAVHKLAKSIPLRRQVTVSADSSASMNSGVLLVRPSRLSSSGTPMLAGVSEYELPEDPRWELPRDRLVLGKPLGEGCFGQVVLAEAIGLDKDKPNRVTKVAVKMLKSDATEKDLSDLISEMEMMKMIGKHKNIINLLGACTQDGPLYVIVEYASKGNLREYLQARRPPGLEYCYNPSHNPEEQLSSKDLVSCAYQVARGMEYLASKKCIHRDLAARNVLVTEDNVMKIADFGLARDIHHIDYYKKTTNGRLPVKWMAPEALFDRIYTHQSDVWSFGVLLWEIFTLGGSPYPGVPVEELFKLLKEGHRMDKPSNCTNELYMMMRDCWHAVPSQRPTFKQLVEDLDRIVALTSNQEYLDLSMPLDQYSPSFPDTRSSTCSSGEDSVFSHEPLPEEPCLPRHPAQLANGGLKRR
PROTOCOL_DESCRIPTION: phosphorylation enrichment, bacterial display (enrichment ratio); higher = better substrate or ligand; peptides without Tyr show the background;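 also: 11-residue human phosphosite peptides and single-mutation variants displayed on the E. coli surface, counted by deep sequencing, each peptide's frequency after selection divided by its frequency in the unselected input library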;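 also: frequency after pTyr selection over input frequency; kinase dosed for 20-30% of maximal phosphorylation in three min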
Respond with Satisfied for phosphorylation enrichment values of 0.5 and above, Not satisfied for values below.

Query: Record GGDAVYTNGTI [RFX2_Y82_A86T] ; criterion: phosphorylation enrichment no lower than 0.5. Met?
Reply: Not satisfied

Query: Thanks! And TIQRMYGCDVG [HLA-A_Y123_I121R] ?
Reply: Satisfied

Query: Thanks! And GFPVRYTDVSN [DNMT3B_Y815_H814R] ?
Reply: Not satisfied

Query: Thanks! And DEDYLYREELA [POR_Y575] ?
Reply: Satisfied

Query: Thanks! And LKMLVYLDMSK [LRRC7_Y234] ?
Reply: Not satisfied

Query: Thanks! And GENTMYAQVFN [LY9_Y603] ?
Reply: Satisfied

Query: Thanks! And RFLERYIYNRQ [HLA-DPB1_Y57_E62Q] ?
Reply: Satisfied

Query: Thanks! And VSSPKYGGDDE [TMCC2_Y473_S475G] ?
Reply: Not satisfied

Query: Thanks! And FCRHNYGAVES [HLA-DRB1_Y112_V114A_YF] ?
Reply: Not satisfied

Query: Thanks! And EEGRVYVYHLS [ITGAE_Y549_R552H] ?
Reply: Satisfied

Query: Thanks! And NVVNEYSSELE [FGB_Y172] ?
Reply: Satisfied

Query: Thanks! And GGQSVYHVNLH [HINT1_Y109_H112N] ?
Reply: Not satisfied

Query: Thanks! And TEAEPYYRSLR [NPHS1_Y1138] ?
Reply: Not satisfied

###

I'd appreciate it if you could supply phosphorylation enrichment values for the items below.
EXPERIMENTAL_SYSTEM: EPHB2 (UniProt P29323)
Sequence (P29323 whole entry, looked up): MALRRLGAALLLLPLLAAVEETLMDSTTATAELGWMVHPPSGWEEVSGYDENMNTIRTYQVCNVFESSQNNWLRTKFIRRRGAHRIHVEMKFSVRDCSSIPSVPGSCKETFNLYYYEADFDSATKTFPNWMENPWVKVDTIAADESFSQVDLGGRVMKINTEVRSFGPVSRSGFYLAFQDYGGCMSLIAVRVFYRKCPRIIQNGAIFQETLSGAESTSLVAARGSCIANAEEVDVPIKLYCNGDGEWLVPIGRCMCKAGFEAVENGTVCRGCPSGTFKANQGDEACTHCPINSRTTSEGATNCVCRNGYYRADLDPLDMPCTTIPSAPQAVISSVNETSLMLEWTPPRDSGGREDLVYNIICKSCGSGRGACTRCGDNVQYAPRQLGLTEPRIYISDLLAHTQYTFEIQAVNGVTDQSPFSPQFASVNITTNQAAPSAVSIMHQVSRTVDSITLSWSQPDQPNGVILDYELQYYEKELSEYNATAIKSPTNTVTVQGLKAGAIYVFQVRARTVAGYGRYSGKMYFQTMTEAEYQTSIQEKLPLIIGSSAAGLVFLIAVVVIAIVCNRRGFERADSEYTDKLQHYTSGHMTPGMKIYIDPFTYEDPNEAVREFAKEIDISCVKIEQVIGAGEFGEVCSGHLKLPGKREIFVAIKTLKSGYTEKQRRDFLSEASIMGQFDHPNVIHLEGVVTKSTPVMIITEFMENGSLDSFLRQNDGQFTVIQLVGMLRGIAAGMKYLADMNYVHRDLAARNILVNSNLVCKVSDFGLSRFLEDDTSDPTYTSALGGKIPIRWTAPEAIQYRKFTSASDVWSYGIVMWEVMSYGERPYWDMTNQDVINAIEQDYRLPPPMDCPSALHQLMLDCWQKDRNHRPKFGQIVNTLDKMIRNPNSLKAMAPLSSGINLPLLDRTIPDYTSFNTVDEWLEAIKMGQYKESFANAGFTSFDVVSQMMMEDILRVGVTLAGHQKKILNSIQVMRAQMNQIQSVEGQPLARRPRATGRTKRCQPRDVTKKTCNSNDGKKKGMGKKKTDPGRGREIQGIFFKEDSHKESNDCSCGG
PROTOCOL_DESCRIPTION: phosphorylation enrichment, bacterial display (enrichment ratio); higher = better substrate or ligand; peptides without Tyr show the background
Respond using a number only.

Query: For LTSVKYLLSAT [GSDMC_Y26_P23S] , what is its reported phosphorylation enrichment?
Reply: 0.566

Query: Thanks! And EDGRLYAVKCS [PKMYT1_Y136_R140C] ?
Reply: 0.609

Query: Thanks! And RGVTRYIFNRE [HLA-DQB1_Y62_Y58G_YF] ?
Reply: 0.766

Query: Thanks! And HVIKLYGACSQ [RET_Y791] ?
Reply: 0.768

Query: Thanks! And RQQEDYLLYKQ [RARRES1_Y159] ?
Reply: 0.823

Query: Thanks! And CNTIHYNYMCN [TP53_Y234_T230N] ?
Reply: 0.581

Query: Thanks! And TWSPKYTLRSH [STRN3_Y474_N471S] ?
Reply: 0.477

###

EXPERIMENTAL_SYSTEM: MERTK (UniProt Q12866)
Sequence (Q12866 whole entry, looked up): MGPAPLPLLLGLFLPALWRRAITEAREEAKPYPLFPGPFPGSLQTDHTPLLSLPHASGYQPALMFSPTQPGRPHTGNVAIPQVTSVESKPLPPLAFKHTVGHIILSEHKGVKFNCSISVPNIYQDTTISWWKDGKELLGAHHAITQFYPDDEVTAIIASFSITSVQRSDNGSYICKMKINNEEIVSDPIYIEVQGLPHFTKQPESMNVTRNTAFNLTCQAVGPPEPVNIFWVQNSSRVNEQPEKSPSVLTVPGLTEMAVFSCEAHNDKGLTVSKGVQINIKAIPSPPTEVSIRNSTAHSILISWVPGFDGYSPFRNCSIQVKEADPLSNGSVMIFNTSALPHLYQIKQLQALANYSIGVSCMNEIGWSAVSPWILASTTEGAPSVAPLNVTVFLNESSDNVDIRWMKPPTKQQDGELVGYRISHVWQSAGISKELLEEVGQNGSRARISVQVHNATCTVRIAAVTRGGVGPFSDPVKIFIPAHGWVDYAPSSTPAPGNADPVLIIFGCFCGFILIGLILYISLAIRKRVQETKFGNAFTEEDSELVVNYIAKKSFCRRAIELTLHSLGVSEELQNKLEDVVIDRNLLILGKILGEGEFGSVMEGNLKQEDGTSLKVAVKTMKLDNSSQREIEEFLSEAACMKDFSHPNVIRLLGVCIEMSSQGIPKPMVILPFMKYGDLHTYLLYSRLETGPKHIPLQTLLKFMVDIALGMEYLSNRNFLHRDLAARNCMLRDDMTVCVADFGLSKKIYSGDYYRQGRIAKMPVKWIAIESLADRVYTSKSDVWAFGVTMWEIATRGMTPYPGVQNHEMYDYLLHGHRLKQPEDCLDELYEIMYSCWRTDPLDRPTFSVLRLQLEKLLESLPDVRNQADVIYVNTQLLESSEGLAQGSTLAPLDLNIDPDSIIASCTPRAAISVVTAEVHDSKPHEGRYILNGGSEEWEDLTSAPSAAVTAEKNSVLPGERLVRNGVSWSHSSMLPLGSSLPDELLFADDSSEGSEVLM
PROTOCOL_DESCRIPTION: phosphorylation enrichment, bacterial display (enrichment ratio); higher = better substrate or ligand; peptides without Tyr show the background
Respond with T for phosphorylation enrichment values of 0.5 and above, F for values below.

Query: Record QRRLVYYERGA [RYR1_Y245_G248R] ; criterion: phosphorylation enrichment no lower than 0.5. Met?
Reply: F

Query: Thanks! And KLSHLYQDHMQ [WNT5A_Y86_C83S] ?
Reply: F

Query: Thanks! And WYQTKYEELQV [KRT6B_Y360_I365V] ?
Reply: F

Query: Thanks! And GPQGFYSNKLV [PTPN14_Y506_V505F] ?
Reply: T

Query: Thanks! And LEQGEYALRSH [HADHB_Y244_D242G] ?
Reply: T

Query: Thanks! And IKETHYMVDKC ?
Reply: F

Query: Thanks! And LDAFIYDAAVL [GRIN2A_Y730] ?
Reply: T

Query: Thanks! And NFFDTCIKTCL [IQGAP2_Y1445_Y1445C_YF] ?
Reply: T

Query: Thanks! And CTTTHYNYMCN [TP53_Y234_I232T] ?
Reply: F

Query: Thanks! And FADIAYIFRHG [PAH_Y166_N167I_YF] ?
Reply: F

Query: Thanks! And ISRVLYPNDNF [PYGM_Y281] ?
Reply: F

Query: Thanks! And GHLFAYDWISI [BEST1_Y227_YF] ?
Reply: T

Query: Thanks! And TVHCDYLNISH [TAF1L_Y1385_P1389S] ?
Reply: F

Query: Thanks! And KGEDFYYVTCH [FHL1_Y149_C150Y] ?
Reply: T
